study.target: T1, hBCMA (human BCMA) (Homo sapiens, UniProt Q02223)
T1 sequence (Q02223 1-184): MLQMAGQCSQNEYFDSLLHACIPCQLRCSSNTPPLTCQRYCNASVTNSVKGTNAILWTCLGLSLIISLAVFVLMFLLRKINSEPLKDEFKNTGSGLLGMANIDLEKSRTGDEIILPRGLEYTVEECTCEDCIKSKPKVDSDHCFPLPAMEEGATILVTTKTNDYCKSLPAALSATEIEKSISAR
test.summary: Kinetics and affinity of hBCMA/human IgG interactions by SPR (Bio-Rad Proteon XPR36)
Assay type: binding
reported.conditions: huBCMA, 37° C.
Kindly state kd (1/s) huBCMA @37° C. for each of the entries shown.
Respond with the bare value in s⁻¹.

-- ask I have this molecule here, L3.PY/H2.DY: anti-BCMA antibody (antibody, V domains shown) VH: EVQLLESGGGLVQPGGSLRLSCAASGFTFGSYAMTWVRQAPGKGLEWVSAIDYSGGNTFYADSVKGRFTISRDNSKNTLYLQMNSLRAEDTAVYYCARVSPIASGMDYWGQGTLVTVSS VL: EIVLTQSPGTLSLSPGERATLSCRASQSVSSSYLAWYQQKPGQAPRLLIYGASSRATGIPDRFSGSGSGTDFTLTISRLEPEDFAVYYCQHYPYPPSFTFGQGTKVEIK , and I need its recorded kd (1/s) huBCMA @37° C..
-- reply 0.00138

-- ask What do you have for L3.PY/L1.AH/H2.QL: anti-BCMA antibody (antibody, V domains shown) VH: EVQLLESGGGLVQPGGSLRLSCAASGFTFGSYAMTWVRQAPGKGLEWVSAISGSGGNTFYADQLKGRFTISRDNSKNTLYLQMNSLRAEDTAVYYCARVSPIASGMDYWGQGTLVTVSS VL: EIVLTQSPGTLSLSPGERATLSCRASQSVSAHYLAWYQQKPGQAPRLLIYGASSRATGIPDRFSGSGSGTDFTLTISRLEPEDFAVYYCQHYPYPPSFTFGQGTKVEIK ?
-- reply 0.0016

-- ask What do you have for L3.PY/L1.AH/H2.DY: anti-BCMA antibody (antibody, V domains shown) VH: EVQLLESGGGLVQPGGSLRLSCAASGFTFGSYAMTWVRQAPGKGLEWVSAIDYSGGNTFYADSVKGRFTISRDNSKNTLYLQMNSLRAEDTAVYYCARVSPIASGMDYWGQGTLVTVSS VL: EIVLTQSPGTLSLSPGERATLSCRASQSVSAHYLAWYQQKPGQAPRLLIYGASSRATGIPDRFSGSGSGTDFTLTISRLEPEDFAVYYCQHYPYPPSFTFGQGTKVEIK ?
-- reply 0.00152

-- ask What do you have for L3.PY/L1.FF/H3.TAQ: anti-BCMA antibody (antibody, V domains shown) VH: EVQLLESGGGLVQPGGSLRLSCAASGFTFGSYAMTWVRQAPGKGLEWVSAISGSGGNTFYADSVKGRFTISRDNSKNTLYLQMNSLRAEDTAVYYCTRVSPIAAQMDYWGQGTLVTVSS VL: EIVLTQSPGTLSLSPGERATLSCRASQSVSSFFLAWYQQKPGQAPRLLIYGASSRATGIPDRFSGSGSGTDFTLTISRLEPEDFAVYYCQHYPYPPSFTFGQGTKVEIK ?
-- reply 0.00189

-- ask What do you have for L3.PY/L1.AH/H2.QR: anti-BCMA antibody (antibody, V domains shown) VH: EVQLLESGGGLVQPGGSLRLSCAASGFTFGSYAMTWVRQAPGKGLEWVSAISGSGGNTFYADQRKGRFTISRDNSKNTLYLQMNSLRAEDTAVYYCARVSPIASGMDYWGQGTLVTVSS VL: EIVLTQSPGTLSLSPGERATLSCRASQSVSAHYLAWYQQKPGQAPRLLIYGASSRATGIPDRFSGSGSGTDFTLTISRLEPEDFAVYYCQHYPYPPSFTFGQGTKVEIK ?
-- reply 0.00181

Taken from patent US11814435B2.
